assay_summary: HepG2 cell viability effects, profiling panel, calcein-AM fluorescence, 48 h, basal (AID 1164); further: test concentration not given here
condition_summary: higher = more signal
measurement_kind: z-score
Reply briefly: the number, and no unit.

Some entries whose results are on file:
For reference, reported z-score for CCOC(=O)[C@H]1C/C=C/C[C@H](C(=O)OCC)C(=O)O[C@H]2[C@@H](OC)O[C@H](CO)[C@@H](OC(=O)Nc3cccc(F)c3)[C@@H]2OC1=O stands at -5.19

For reference, reported z-score for COc1cc2c(cc1O)C(C1CC1)N(Cc1cc3c(cc1Br)OCO3)CC2 (stereo not drawn) stands at -3.79

More entries:
For reference, reported z-score for O=C1O[C@H](c2ccccc2)[C@H](c2ccccc2)N2[C@H]1[C@@H](C(=O)Nc1nc3ccccc3s1)[C@]1(C(=O)Nc3ccc(C#CCCO)cc31)[C@H]2c1ccc(OCCO)cc1 stands at 1.03

----------
assay_summary: E. coli acrAB mutant growth effects, primary screen, E. coli filamentation inducers, strain DRC39, OD650, 24 h (AID 1178);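 further: growth measured as culture turbidity by optical density at 650 nm; test concentration not given here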
condition_summary: higher = more signal, called active from +8 up or from −8 down
Documented z-score across a set of compounds
Reply briefly: the number, and no unit.

For reference, reported z-score for CS(=O)(=O)CCOC(=O)C1=CC(CCCO)=CC(c2ccc(CN3CCCC3)cc2)N(Cc2cc3c(cc2Br)OCO3)C=C1C(=O)OCCS(C)(=O)=O (stereo unspecified) stands at 0.549

For reference, reported z-score for CCCCN1CC=CC23O[C@@H]4/C=C\CCC(C)OC(=O)C4[C@H]2C(=O)N(CCCCCO)[C@@H]3C1=O (stereo partly specified) stands at 0.511

For reference, reported z-score for CC(C)(C)OC(=O)CC[C@]1(C(=O)O)N=C(c2ccc(OCCCO)cc2)O[C@H]1c1ccccc1N=[N+]=[N-] stands at 0.0508

For reference, reported z-score for COCCCNC(=O)[C@@]1(Cc2ccccc2N=[N+]=[N-])N=C(c2ccc(OCCCO)cc2)O[C@H]1c1ccccc1N=[N+]=[N-] stands at 0.478

For reference, reported z-score for CC(C)(C)OC(=O)CC[C@@]1(C(N)=O)N=C(c2ccc(OCCCO)cc2)O[C@@H]1c1ccccc1 stands at -0.352

For reference, reported z-score for C=C(C)C1C(=C)CN([C@H](CO)c2ccccc2)C1=O (stereo partly specified) stands at 0.692

For reference, reported z-score for COc1ccc(C(O)C2C=CC3C(=O)NC(=O)C3N2Nc2ccccn2)c2ccccc12 (stereo unspecified) stands at -0.272

For reference, reported z-score for O=C1OCC=C[C@H]2OC34C=CCN(CCN5CCOCC5)C(=O)[C@H]3N(CCCO)C(=O)[C@@H]4[C@@H]12 (stereo partly specified) stands at -0.514

For reference, reported z-score for CN(C)CCCNC(=O)[C@@]1(c2ccc([N+](=O)[O-])cc2)CC(=O)N(C2CCCCC2)[C@@H]1c1ccc(CO)cc1I stands at 0.725

For reference, reported z-score for CC(C)N1C(=O)c2ccccc2[C@](C)(C(=O)NCc2ccccc2)[C@@H]1c1ccc(CO)cc1 stands at 0.0861

----------
assay_summary: small-molecule binders of probe aInhba, primary screen, biochemical, small-molecule microarray, 635/667 nm fluorescence (AID 1148);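 further: score merges 667nm spot fluorescence with signal-to-noise for antibody binding to printed compounds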
condition_summary: higher = more signal
Documented composite z-score across a set of compounds
Reply briefly: the number, and no unit.

For reference, reported composite z-score for C=CCC(OC(C)=O)[C@@H]1[C@@H](N(Cc2ccc(-c3ccccc3)cc2)C(=O)Cc2ccc(F)cc2)c2cc(OCCCO)ccc2N1C(=O)c1ccc(-c2ccccc2)cc1 (stereo partly specified) stands at -0.157

For reference, reported composite z-score for CC1CC/C=C\[C@H]2OC34C=CCN(c5ccc(Cl)cc5)C(=O)[C@H]3N(CCO)C(=O)[C@]4(C)C2C(=O)O1 (stereo partly specified) stands at -0.128

For reference, reported composite z-score for CCN(CC)c1ccc(N2CC=CC34O[C@@H]5/C=C\CCCOC(=O)C5[C@H]3C(=O)N(CCO)[C@@H]4C2=O)cc1 (stereo partly specified) stands at -0.219

For reference, reported composite z-score for O=C1C2C=CC(C(O)c3c(F)cccc3Cl)N(Nc3ccccc3)C2C(=O)N1c1ccccc1 (stereo unspecified) stands at 0.153

For reference, reported composite z-score for COCCOC(=O)N1C(=O)[C@@]2(c3cc(C#CCCO)ccc31)[C@H](C(=O)N1CCc3cc(OC)c(OC)cc3C1)[C@H]1C(=O)O[C@H](c3ccccc3)[C@H](c3ccccc3)N1[C@@H]2c1ccc(O)cc1 stands at 0.132

For reference, reported composite z-score for CC(C)c1ccc(NN2C(C(O)C(c3ccccc3)c3ccccc3)C=CC3C(=O)N(c4ccccc4)C(=O)C32)cc1 (stereo unspecified) stands at 0.246

For reference, reported composite z-score for CN1C2C=C(CCCO)C(C3C(=O)N(C(N)=O)C(=O)C32)C1c1ccc(CN2CCCC2)cc1 (stereo unspecified) stands at -0.299

For reference, reported composite z-score for C=CCC(OC(C)=O)[C@@H]1[C@@H](N(Cc2ccc(-c3cccc(C(F)(F)F)c3)o2)C(=O)c2ccc(-c3ccccc3)cc2)c2cc(OCCCO)ccc2N1C(=O)c1ccc(-c2ccccc2)cc1 (stereo partly specified) stands at -0.0403

For reference, reported composite z-score for CCOC(=O)C1=CCC(c2ccc(C)cc2)N(S(=O)(=O)c2ccc(C)cc2)C1 (stereo unspecified) stands at -0.0645

For reference, reported composite z-score for Cc1ccc(C(C)CC(O)C2C=CC3C(=O)N(C)C(=O)C3N2NC(=O)OC(C)(C)C)o1 (stereo unspecified) stands at 0.4

For reference, reported composite z-score for CC(C)(C)OC(=O)CC[C@@]1(C(=O)NCC(O)CO)N=C(c2ccc(OCCCO)cc2)O[C@@H]1c1ccccc1N=[N+]=[N-] (stereo partly specified) stands at 0.289

For reference, reported composite z-score for NCCCCCNC(=O)[C@@H]1C[C@@H]2C(=O)N[C@@H](Cc3ccccc3)C(=O)N2[C@@H]1c1cccc(OCCO)c1 stands at -0.182

For reference, reported composite z-score for C#CCNC(=O)[C@H](Cc1ccccc1)NC(=O)CCC(=O)O stands at -0.146

For reference, reported composite z-score for CC(C)(C)OC(=O)CC[C@@]1(C(=O)NCCN2CCOCC2)N=C(c2ccc(OCCCO)cc2)O[C@@H]1c1ccccc1N=[N+]=[N-] stands at 0.0614

For reference, reported composite z-score for C=CC[C@@]1(C(=O)NCc2ccccc2)N=C(c2ccc(OCCCO)cc2)O[C@@H]1c1ccccc1N=[N+]=[N-] stands at 0.174

For reference, reported composite z-score for Cc1ccc(C(C)CC(O)C2C=CC3C(=O)N(c4ccccc4)C(=O)C3N2Nc2ccc([N+](=O)[O-])cc2)o1 (stereo unspecified) stands at -0.0131
